src = ChEMBL document CHEMBL3098054

Exercise: for every item that follows, state its recorded Papp A→B at 1.5 h, 5 µM.
test system: MDR1; assay: Apparent permeability from apical to basolateral side in MDCK cells expressing MDR1 at 5 uM after 90 mins; assay type: ADME, cell-based, Canis lupus familiaris; details: dog
Please give a number only; it is taken to be in ×10⁻⁶ cm/s.

Request: What value of Papp A→B at 1.5 h, 5 µM has been reported for the following compound? CO[C@H]1C[C@H]2OC[C@@]2(OC(C)=O)[C@H]2[C@H](OC(=O)c3ccccc3)[C@]34OC(=O)O[C@H]3[C@H](OC(=O)[C@H](O)[C@@H](NC(=O)OC(C)(C)C)c3ccccc3)C(C)=C([C@@H](OC(=O)N(C)C)C(=O)[C@]12C)C4(C)C
Result: 0.63

Request: And CC(=O)O[C@H]1C(=O)[C@@]2(C)[C@H]([C@H](OC(=O)c3ccccc3)[C@]3(O)C[C@H](OC(=O)[C@H](O)[C@@H](NC(=O)c4ccccc4)c4ccccc4)C(C)=C1C3(C)C)[C@]1(OC(C)=O)CO[C@@H]1C[C@@H]2O [PACLITAXEL] ?
Result: 0.13

Request: And C[C@H]1O[C@@H](O[C@H]2[C@@H](O)C[C@H](O[C@H]3[C@@H](O)C[C@H](O[C@H]4CC[C@@]5(C)[C@H](CC[C@@H]6[C@@H]5C[C@@H](O)[C@]5(C)[C@@H](C7=CC(=O)OC7)CC[C@]65O)C4)O[C@@H]3C)O[C@@H]2C)C[C@H](O)[C@@H]1O [DIGOXIN] ?
Result: 0.19

Request: And CO[C@H]1C(=O)[C@]2(C)[C@@H](OC(=O)N(C)C)C[C@H]3OC[C@@]3(OC(C)=O)[C@H]2[C@H](OC(=O)c2ccccc2)[C@]2(O)C[C@H](OC(=O)[C@H](O)[C@@H](NC(=O)OC(C)(C)C)c3ccccc3)C(C)=C1C2(C)C ?
Result: 0.52
